# Measured On: T1, Human SIRPβ HIS (human, UniProt O00241 30-148, limits assumed)
# T1 construct: detected with streptavidin, so biotinylated; also called recombinant human SIRPβ1; human SIRPβ1 monomer
# Test Details: MSD-SET, Fab monovalent
Readout Kind: Kd (nM)
Numeric only. Scale: nM

Look up Kd: SB-8-13 Fab (Fab, V domains shown, Fab by papain digestion) VH: QVQLQESGPGLVKPSETLSLTCAVSGYSISAHYYWGWIRQPPGKGLEWIGSIFHSGHTYYNPSLKSRVTISVDTSKNQFSLKLSSVTAADTAVYYCARGGAMTPAGMDVWGQGTTVTVSS VL: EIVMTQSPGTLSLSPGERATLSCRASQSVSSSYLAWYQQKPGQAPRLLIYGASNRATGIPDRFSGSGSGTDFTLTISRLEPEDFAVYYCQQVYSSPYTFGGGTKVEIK
0.063
